The reader will find reported EC50 values listed item by item below.
Assay system: human LPAR1 (Homo sapiens (Human), UniProt Q92633)
Sequence (Q92633 whole entry): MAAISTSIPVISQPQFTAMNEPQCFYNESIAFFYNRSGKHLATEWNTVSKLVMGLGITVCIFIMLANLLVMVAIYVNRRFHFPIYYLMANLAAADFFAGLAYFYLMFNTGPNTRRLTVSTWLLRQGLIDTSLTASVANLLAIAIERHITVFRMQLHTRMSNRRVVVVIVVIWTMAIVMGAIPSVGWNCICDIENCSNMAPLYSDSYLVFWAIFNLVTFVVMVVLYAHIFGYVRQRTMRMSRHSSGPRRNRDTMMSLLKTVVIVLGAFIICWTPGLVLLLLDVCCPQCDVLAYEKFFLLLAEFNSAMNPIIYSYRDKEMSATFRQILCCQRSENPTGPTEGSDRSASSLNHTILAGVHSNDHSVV
Experimental details: LPAR1 intracellular calcium mobilization assay (antagonist mode, FLIPR)
Format: cell-based
Test conditions: CHO-K1 EDG2 cells expressing human LPAR1, LPA 18:2 at EC80 (100 nM), test compound 0.5 nM to 10 μM

- Compound: "C[C@@H](OC(=O)Nc1c(-c2ccc(NC(=O)C3CC(C)(O)C3)cn2)nnn1C)c1cccnc1Cl (stereo partly shown) [Compound 109]"
  Result: "1710 nM"
- Compound: "C[C@@H](OC(=O)Nc1c(-c2ccc(NC(=O)[C@]3(C#N)C[C@H]3C(F)F)cn2)nnn1C)c1cc(F)cnc1F"
  Result: "11.7 nM"
- Compound: "C[C@@H](OC(=O)Nc1c(-c2ccc(NC(=O)C3(C)CC(F)(F)C3)cn2)nnn1C)c1cccnc1Cl"
  Result: "36.1 nM"

Q: Find the measured EC50 of C[C@@H](OC(=O)Nc1c(-c2ccc(NC(=O)c3ccc(Cl)nc3F)cn2)nnn1C)c1cc(F)cnc1F and report it.
Result: 23.7 nM

// provenance: patent US11912686B2
